The measurements presented in this section are drawn from ChEMBL document CHEMBL2218924.

Recorded residual activity by entry
Target: Death-associated protein kinase 2 (Homo sapiens) (UniProt Q9UIK4)
Sequence (Q9UIK4 whole entry, looked up): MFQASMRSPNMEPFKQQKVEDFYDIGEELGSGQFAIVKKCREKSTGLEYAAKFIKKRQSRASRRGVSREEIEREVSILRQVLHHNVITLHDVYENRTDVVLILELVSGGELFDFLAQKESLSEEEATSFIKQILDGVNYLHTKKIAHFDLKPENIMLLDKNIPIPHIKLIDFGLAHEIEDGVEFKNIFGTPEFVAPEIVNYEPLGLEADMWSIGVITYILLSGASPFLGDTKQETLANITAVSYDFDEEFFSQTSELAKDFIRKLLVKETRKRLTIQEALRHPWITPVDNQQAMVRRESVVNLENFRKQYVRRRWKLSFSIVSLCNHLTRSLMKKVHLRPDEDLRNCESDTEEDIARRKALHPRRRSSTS
Conditions: at 10 µM
The reply should be a number in %, with the unit left off.

A selection of reference data follows.
{"Structure Smiles": "N#C/C(=C(\\N)Sc1ccc(N)cc1)c1ccccc1C(F)(F)F", "residual activity [%]": 103}
{"Structure Smiles": "Nc1nc(Nc2ccc(S(N)(=O)=O)cc2)nn1C(=S)Nc1c(F)cccc1F", "residual activity [%]": 43}
{"Structure Smiles": "CO[C@@H]1[C@H](N(C)C(=O)c2ccccc2)C[C@H]2O[C@]1(C)n1c3ccccc3c3c4c(c5c6ccccc6n2c5c31)C(=O)NC4", "residual activity [%]": 54}
{"Structure Smiles": "Oc1c2ccccc2c2c3c(cccc13)N=N2", "residual activity [%]": 43}
{"Structure Smiles": "O=c1cc(-c2cccc3c2Sc2ccccc2S3)oc(N2CCOCC2)c1", "residual activity [%]": 89}

// query Any idea what its residual activity is? The compound is Ic1cccc(CSc2nnc(-c3ccncc3)o2)c1
// result 100

// query Now consider O=C1Nc2cc(Br)ccc2/C1=C1/Nc2ccccc2/C1=N\O .
// result 26

###

Molecular target: Macrophage colony-stimulating factor 1 receptor (Homo sapiens)
Details: at 1 µM
Parameter: residual activity
Provide a numeric answer, followed by its unit.

A selection of reference data follows.
{"Structure Smiles": "O=C1NC(=O)/C(=C/c2ccc3c(c2)OC(F)(F)O3)S1", "Result": "56%"}
{"Structure Smiles": "CO[C@H]1C[C@@H]2CC[C@@H](C)[C@@](O)(O2)C(=O)C(=O)N2CCCC[C@H]2C(=O)O[C@H]([C@H](C)C[C@@H]2CC[C@@H](O)[C@H](OC)C2)CC(=O)[C@H](C)/C=C(\\C)[C@@H](O)[C@@H](OC)C(=O)[C@H](C)C[C@H](C)/C=C/C=C/C=C/1C", "Result": "85%"}
{"Structure Smiles": "CO[C@@H]1[C@H](N(C)C(=O)c2ccccc2)C[C@H]2O[C@]1(C)n1c3ccccc3c3c4c(c5c6ccccc6n2c5c31)C(=O)NC4", "Result": "0%"}
{"Structure Smiles": "Nc1n[nH]c2nnc(-c3c(-c4ccccc4)nn4ccccc34)cc12", "Result": "67%"}
{"Structure Smiles": "COc1cc2ncnc(Nc3ccc(Oc4ccccc4)cc3)c2cc1OC", "Result": "49%"}
{"Structure Smiles": "Cc1ccc(S(=O)(=O)/C=C/C#N)cc1", "Result": "84%"}
{"Structure Smiles": "O=C1NC(=O)c2cc(Nc3ccc(F)cc3)c(Nc3ccc(F)cc3)cc21", "Result": "75%"}
{"Structure Smiles": "COc1cc2ncnc(N3CCN(C(=O)Nc4ccc(Oc5ccccc5)cc4)CC3)c2cc1OC", "Result": "7%"}
{"Structure Smiles": "c1ccc(-c2n[nH]c3c2oc2ccccc23)cc1", "Result": "6%"}
{"Structure Smiles": "COc1ccc(C(=O)Nc2sc3c(c2C(N)=O)CCCC3)cc1OC", "Result": "39%"}

// query Lab request: please report residual activity under test system Macrophage colony-stimulating factor 1 receptor (Homo sapiens) for N#CCCc1ccc2c(c1)-c1[nH]c3ccc([N+](=O)[O-])cc3c1CC(=O)N2
// result 24%

// query Now consider c1ccc(-c2n[nH]cc2-c2ccnc3ccccc23)nc1 .
// result 71%

// query Now consider COc1ccc(S(=O)(=O)N(CCO)c2ccccc2CN(C)C/C=C/c2ccc(Cl)cc2)cc1 .
// result 78%

// query Now consider Ic1cccc(CSc2nnc(-c3ccncc3)o2)c1 .
// result 71%

// query Now consider Oc1ccc(Nc2nc(-c3ccc(Cl)cc3)cs2)cc1 .
// result 72%

// query Now consider CCN(CC)CCCCN1c2ccccc2Oc2ccc(Cl)cc21 .
// result 124%

// query Now consider N#CC(C#N)=C(N)/C(C#N)=C/c1ccc(O)cc1 .
// result 79%

// query Now consider CC[n+]1c(/C=C/N(C)c2ccccc2)n(-c2ccccc2)c2ccc(-c3nc4ccccc4s3)cc21 .
// result 93%

// query Now consider COc1cc2ncc(-c3ccccc3)nc2cc1OC .
// result 30%

// query Now consider Nc1nc(Nc2ccc(S(N)(=O)=O)cc2)nn1C(=S)Nc1c(F)cccc1F .
// result 5%

###

Target: Tyrosine-protein kinase Fyn (Homo sapiens) (UniProt P06241)
Sequence (P06241 2-537 limits assumed): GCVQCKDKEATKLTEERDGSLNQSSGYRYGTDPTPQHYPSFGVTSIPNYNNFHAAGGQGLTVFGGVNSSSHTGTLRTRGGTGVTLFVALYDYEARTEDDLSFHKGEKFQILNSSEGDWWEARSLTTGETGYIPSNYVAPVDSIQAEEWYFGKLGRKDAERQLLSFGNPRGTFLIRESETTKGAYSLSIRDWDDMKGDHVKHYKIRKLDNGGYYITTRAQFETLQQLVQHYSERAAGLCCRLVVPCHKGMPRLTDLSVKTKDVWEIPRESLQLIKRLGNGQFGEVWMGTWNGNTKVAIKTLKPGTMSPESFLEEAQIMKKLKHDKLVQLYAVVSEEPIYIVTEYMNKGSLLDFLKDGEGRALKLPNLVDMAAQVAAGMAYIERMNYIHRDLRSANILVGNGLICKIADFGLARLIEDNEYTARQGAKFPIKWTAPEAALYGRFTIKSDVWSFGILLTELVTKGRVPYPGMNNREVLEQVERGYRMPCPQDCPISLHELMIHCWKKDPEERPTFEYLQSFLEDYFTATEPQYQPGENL
Settings: at 10 µM
Parameter: residual activity (%)
The reply should be a number in %, with the unit left off.

{"Molecule": "COc1ccc(S(=O)(=O)N(CCO)c2ccccc2CN(C)C/C=C/c2ccc(Cl)cc2)cc1", "Units Label": "%", "residual activity": 37}
{"Molecule": "Cn1cnc2cc3c(Nc4cccc(Br)c4)ncnc3cc21", "Units Label": "%", "residual activity": 34}
{"Molecule": "Nc1cccc(-c2cc3c(Oc4cccc(O)c4)ncnc3[nH]2)c1", "Units Label": "%", "residual activity": -2}
{"Molecule": "COc1cccc(-c2cc(=O)c3ccccc3o2)c1N", "Units Label": "%", "residual activity": 39}
{"Molecule": "COc1ccc(CNc2nc(N(CCO)CCO)nc3c2ncn3C(C)C)cc1", "Units Label": "%", "residual activity": 90}
{"Molecule": "N#CCCc1ccc2c(c1)-c1[nH]c3ccc([N+](=O)[O-])cc3c1CC(=O)N2", "Units Label": "%", "residual activity": 1}
{"Molecule": "Cc1nc(-c2ccccc2)c(-c2ccncc2)o1", "Units Label": "%", "residual activity": 69}
{"Molecule": "O=C1Nc2cc(Br)ccc2/C1=C1/Nc2ccccc2/C1=N\\O", "Units Label": "%", "residual activity": 2}
{"Molecule": "Cc1cncc2cccc(S(=O)(=O)N3CCCN(C(=O)CN)C[C@H]3C)c12", "Units Label": "%", "residual activity": 78}
{"Molecule": "O=C(Nc1cccc(Nc2nccc(Nc3cccc(C(F)(F)F)c3)n2)c1)C1CC1", "Units Label": "%", "residual activity": 7}

// query Lab request: please report residual activity under test system Tyrosine-protein kinase Fyn (Homo sapiens) (UniProt P06241) for O=C1Nc2ccccc2/C1=C1/Nc2ccccc2/C1=N\OCCC(O)CO (stereo not drawn)
// result 2

// query Now consider Cc1ccc(S(=O)(=O)/C=C/C#N)cc1 .
// result 100

// query Now consider Oc1ccc(Nc2nc(-c3ccc(Cl)cc3)cs2)cc1 .
// result 68

// query Now consider C[C@@H](N)[C@H]1CC[C@H](C(=O)Nc2ccncc2)CC1 .
// result 112

// query Now consider Nc1ccc2ncnc(NCCc3ccc(Oc4ccccc4)cc3)c2c1 .
// result 66

// query Now consider O=c1cc(-c2cccc3c2Sc2ccccc2S3)oc(N2CCOCC2)c1 .
// result 94

// query Now consider Nc1n[nH]c2nnc(-c3c(-c4ccccc4)nn4ccccc34)cc12 .
// result 52

// query Now consider CCN(CC)C(=O)c1ccc(Nc2nc(OCC3CCCCC3)c3nc[nH]c3n2)cc1 .
// result 5

###

Molecular target: Mitogen-activated protein kinase kinase kinase kinase 2 (Homo sapiens) (UniProt Q12851)
Sequence (Q12851 whole entry): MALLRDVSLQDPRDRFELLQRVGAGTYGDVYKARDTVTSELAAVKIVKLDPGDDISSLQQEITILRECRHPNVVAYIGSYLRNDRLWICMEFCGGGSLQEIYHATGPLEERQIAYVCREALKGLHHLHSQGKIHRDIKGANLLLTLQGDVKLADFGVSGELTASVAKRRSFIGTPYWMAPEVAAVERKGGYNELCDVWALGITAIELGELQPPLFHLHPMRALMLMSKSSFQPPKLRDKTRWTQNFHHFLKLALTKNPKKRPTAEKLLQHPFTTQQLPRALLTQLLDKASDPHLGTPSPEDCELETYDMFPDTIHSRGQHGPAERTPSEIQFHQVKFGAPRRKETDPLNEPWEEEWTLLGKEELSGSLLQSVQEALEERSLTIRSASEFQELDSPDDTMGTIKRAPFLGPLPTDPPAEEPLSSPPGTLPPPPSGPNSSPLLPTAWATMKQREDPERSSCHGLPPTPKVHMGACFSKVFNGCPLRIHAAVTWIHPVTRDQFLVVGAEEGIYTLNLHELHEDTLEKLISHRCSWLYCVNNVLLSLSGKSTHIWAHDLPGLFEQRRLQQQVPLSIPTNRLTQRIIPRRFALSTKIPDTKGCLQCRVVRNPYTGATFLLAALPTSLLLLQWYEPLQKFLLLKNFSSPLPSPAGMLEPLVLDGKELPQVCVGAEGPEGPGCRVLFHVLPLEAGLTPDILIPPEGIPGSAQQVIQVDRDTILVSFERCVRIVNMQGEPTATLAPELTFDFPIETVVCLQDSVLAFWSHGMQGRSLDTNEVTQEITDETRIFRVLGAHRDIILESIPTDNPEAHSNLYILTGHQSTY
Settings: at 10 µM
Parameter: residual activity (%)
The reply should be a number in %, with the unit left off.

{"Compound": "Nc1nc(Nc2ccc(S(N)(=O)=O)cc2)nn1C(=S)Nc1c(F)cccc1F", "residual activity, %": -1}
{"Compound": "c1ccc2c(-c3ccncc3)c[nH]c2c1", "residual activity, %": 50}
{"Compound": "Cc1nc2cc3nc(-c4cccs4)cnc3cc2n1C", "residual activity, %": 85}
{"Compound": "CN(C)CCCn1cc(C2=C(c3c[nH]c4ccccc34)C(=O)NC2=O)c2ccccc21", "residual activity, %": 22}
{"Compound": "CCN(CC)CCCCN1c2ccccc2Oc2ccc(Cl)cc21", "residual activity, %": 91}
{"Compound": "Cn1nc2c3c(cccc31)C(=O)c1ccccc1-2", "residual activity, %": 19}
{"Compound": "c1ccc(-c2n[nH]cc2-c2ccnc3ccccc23)nc1", "residual activity, %": 27}
{"Compound": "O=c1c2ccccc2[nH]c(=S)n1CCN1CCC(=C(c2ccc(F)cc2)c2ccc(F)cc2)CC1", "residual activity, %": 82}

// query Any idea what its residual activity is? The compound is Oc1ccc(-c2nc(-c3ccc(F)cc3)c(-c3ccncc3)[nH]2)cc1
// result 87

// query Now consider Cn1cc(/C=C2\C(=O)Nc3ccc(S(N)(=O)=O)cc32)c2ccccc21 .
// result 1

// query Now consider N#CC(C#N)=C(N)/C(C#N)=C/c1ccc(O)cc1 .
// result 61

// query Now consider O=C1Nc2ccccc2/C1=C1/Nc2ccccc2/C1=N\OCCC(O)CO (stereo not given) .
// result 4

// query Now consider COc1cccc(-c2cc(=O)c3ccccc3o2)c1N .
// result 82
